Every entry's value here was drawn from the NIST ThermoML archive (doi:10.1016/j.fluid.2014.11.020).

- ASSAY SUMMARY: activity coefficient (dimensionless); of the first substance listed, at infinite dilution; xn = mol fraction of the nth substance listed
- EXPERIMENTAL CONDITIONS: 333.15 K; Liquid; Chromatography; x1 = 0
Measured activity coefficient of individual entries

COMPOUND | activity coefficient
CCCCCCCCC [nonane] + CCCCCCCCn1cc[n+](COCCCOC[n+]2ccn(CCCCCCCC)c2C)c1C.N#C[N-]C#N.N#C[N-]C#N | 15.8
C1COCCO1 [1,4-dioxane] + Cn1cc[n+](COCCCOC[n+]2ccn(C)c2)c1.O=S(=O)([N-]S(=O)(=O)C(F)(F)F)C(F)(F)F.O=S(=O)([N-]S(=O)(=O)C(F)(F)F)C(F)(F)F | 0.39
CCCO [propan-1-ol] + CCCOC[n+]1ccc(N(C)C)cc1.O=S(=O)([N-]S(=O)(=O)C(F)(F)F)C(F)(F)F | 1.72
CCCCCCCCCCC [undecane] + CCCCCCCCn1cc[n+](COCCCOC[n+]2ccn(CCCCCCCC)c2C)c1C.N#C[N-]C#N.N#C[N-]C#N | 23.4
ClC(Cl)Cl [trichloromethane] + CCCOC[n+]1ccn(Cc2ccccc2)c1.O=S(=O)([N-]S(=O)(=O)C(F)(F)F)C(F)(F)F | 0.65
CCC(C)=O [butanone] + CCCCCCCCn1cc[n+](COCCCOC[n+]2ccn(CCCCCCCC)c2C)c1C.N#C[N-]C#N.N#C[N-]C#N | 0.5
C1CCCCC1 [cyclohexane] + CN(C)c1cc[n+](COCCCOC[n+]2ccc(N(C)C)cc2)cc1.O=S(=O)([N-]S(=O)(=O)C(F)(F)F)C(F)(F)F.O=S(=O)([N-]S(=O)(=O)C(F)(F)F)C(F)(F)F | 9.32
CC(C)CO [2-methyl-1-propanol] + Cn1cc[n+](COCCCOC[n+]2ccn(C)c2)c1.N#C[N-]C#N.N#C[N-]C#N | 1.81
CCCO [propan-1-ol] + CN(C)c1cc[n+](COCCCOC[n+]2ccc(N(C)C)cc2)cc1.O=S(=O)([N-]S(=O)(=O)C(F)(F)F)C(F)(F)F.O=S(=O)([N-]S(=O)(=O)C(F)(F)F)C(F)(F)F | 1.37
CC1CCCC1 [methylcyclopentane] + CCCCCCCCn1cc[n+](COCCC)c1C.O=S(=O)([N-]S(=O)(=O)C(F)(F)F)C(F)(F)F | 2.41
c1ccncc1 [pyridine] + CCCCCCCCn1cc[n+](COCCCOC[n+]2ccn(CCCCCCCC)c2C)c1C.N#C[N-]C#N.N#C[N-]C#N | 0.38
C=CCCCC [hex-1-ene] + CCCOC[n+]1ccn(Cc2ccccc2)c1.N#C[N-]C#N | 14.8
c1ccsc1 [thiophene] + Cn1cc[n+](COCCCOC[n+]2ccn(C)c2)c1.N#C[N-]C#N.N#C[N-]C#N | 1.63

* * *

Measured activity coefficient of individual entries
- ASSAY SUMMARY: activity coefficient (dimensionless); of the first substance listed, at infinite dilution; xn = mol fraction of the nth substance listed
- EXPERIMENTAL CONDITIONS: 333.15 K; Liquid; Chromatography; x1 = 0

COMPOUND | activity coefficient
C#CCCCC [1-hexyne] + CCCCCCCCn1cc[n+](COCCC)c1C.O=S(=O)([N-]S(=O)(=O)C(F)(F)F)C(F)(F)F | 1.36
CCCCCC [hexane] + CCCCCCCCn1cc[n+](COCCC)c1C.O=S(=O)([N-]S(=O)(=O)C(F)(F)F)C(F)(F)F | 3.74
ClC(Cl)(Cl)Cl [tetrachloromethane] + CCCOC[n+]1ccc(N(C)C)cc1.O=S(=O)([N-]S(=O)(=O)C(F)(F)F)C(F)(F)F | 2.08
CCCO [propan-1-ol] + N#C[N-]C#N.N#C[N-]C#N.c1ccc(Cn2cc[n+](COCCCOC[n+]3ccn(Cc4ccccc4)c3)c2)cc1 | 1.2
C1CCCCC1 [cyclohexane] + CCCCCCCCn1cc[n+](COCCCOC[n+]2ccn(CCCCCCCC)c2C)c1C.O=S(=O)([N-]S(=O)(=O)C(F)(F)F)C(F)(F)F.O=S(=O)([N-]S(=O)(=O)C(F)(F)F)C(F)(F)F | 2.22
CC1CCCCC1 [methylcyclohexane] + CN(C)c1cc[n+](COCCCOC[n+]2ccc(N(C)C)cc2)cc1.O=S(=O)([N-]S(=O)(=O)C(F)(F)F)C(F)(F)F.O=S(=O)([N-]S(=O)(=O)C(F)(F)F)C(F)(F)F | 12.7
